src = ChEMBL document CHEMBL1932926

- Tested on: Lu1
- Protocol summary: Cytotoxicity against human Lu1 cells by SRB assay
- Type: functional
- Condition label: read-out: ED50 (the source's name)
Below is a list of entries, each paired with its recorded log10 of EC50 value.
Field: value | Transform: log10 | Quantity: EC50 | Unit: µM

* C=C1CC[C@@H]2[C@](C)(COC(C)=O)[C@H](OC(C)=O)CC[C@@]2(C)[C@@H]1C/C=C1/C(=O)OC[C@H]1OC(C)=O | 1.09
* C=C1CC[C@@H]2[C@](C)(COC(C)=O)[C@H](O)CC[C@@]2(C)[C@@H]1C/C=C1/C(=O)OC[C@H]1OC(C)=O | 1.30
* C=C1CC[C@@H]2[C@](C)(COC(c3ccccc3)(c3ccccc3)c3ccccc3)[C@H](O)CC[C@@]2(C)[C@@H]1C/C=C1/C(=O)OC[C@H]1O | -0.06

Challenge: Data request, read-out log10 of EC50, for C=C1CC[C@@H]2[C@](C)(CO[Si](c3ccccc3)(c3ccccc3)C(C)(C)C)[C@H](O)CC[C@@]2(C)[C@@H]1C/C=C1/C(=O)OC[C@H]1O
Response given: 1.06

Challenge: Data request, read-out log10 of EC50, for C=C1CC[C@@H]2[C@](C)(CO[Si](C)(C)C(C)(C)C)[C@H](O)CC[C@@]2(C)[C@@H]1C/C=C1/C(=O)OC[C@H]1O
Response given: 1.69

====

- Test system: P388
- Protocol summary: Cytotoxicity against mouse P388 cells by SRB assay
- Format: functional
- Condition label: read-out: ED50 (the source's name)
Below is a list of entries, each paired with its recorded log10(EC50) value.
Field: value | Transform: log10 | Quantity: EC50 | Unit: µM

These solved cases illustrate the format of a correct answer.
• C=C1CC[C@@H]2[C@](C)(COC(C)=O)[C@H](OC(C)=O)CC[C@@]2(C)[C@@H]1C/C=C1/C(=O)OC[C@H]1OC(C)=O = 0.15
• C=C1CC[C@@H]2[C@]3(C)COC(C)(C)O[C@@H]3CC[C@@]2(C)[C@@H]1C/C=C1/C(=O)OC[C@H]1O = 0.58
• C=C1CC[C@@H]2[C@](C)(CO[Si](c3ccccc3)(c3ccccc3)C(C)(C)C)[C@H](O)CC[C@@]2(C)[C@@H]1C/C=C1/C(=O)OC[C@H]1OC(C)=O = -0.48
• C=C1CC[C@@H]2[C@](C)(COC(c3ccccc3)(c3ccccc3)c3ccccc3)[C@H](O)CC[C@@]2(C)[C@@H]1C/C=C1/C(=O)OC[C@H]1O = -0.35
• C=C1CC[C@@H]2[C@](C)(CO[Si](c3ccccc3)(c3ccccc3)C(C)(C)C)[C@H](OC(C)=O)CC[C@@]2(C)[C@@H]1C/C=C1/C(=O)OC[C@H]1O = -0.30

Challenge: Data request, read-out log10(EC50), for C=C1CC[C@@H]2[C@](C)(CO[Si](c3ccccc3)(c3ccccc3)C(C)(C)C)[C@H](O)CC[C@@]2(C)[C@@H]1C/C=C1/C(=O)OC[C@H]1O
Response given: -0.17

Challenge: Data request, read-out log10(EC50), for C=C1CC[C@@H]2[C@](C)(CO[Si](C)(C)C(C)(C)C)[C@H](OC(C)=O)CC[C@@]2(C)[C@@H]1C/C=C1/C(=O)OC[C@H]1OC(C)=O
Response given: -0.47

Challenge: Data request, read-out log10(EC50), for C=C1CC[C@@H]2[C@](C)(CO[Si](C)(C)C(C)(C)C)[C@H](O)CC[C@@]2(C)[C@@H]1C/C=C1/C(=O)OC[C@H]1OC(C)=O
Response given: 0.01

Challenge: Data request, read-out log10(EC50), for C=C1CC[C@@H]2[C@](C)(COC(c3ccccc3)(c3ccccc3)c3ccccc3)[C@H](OC(C)=O)CC[C@@]2(C)[C@@H]1C/C=C1/C(=O)OC[C@H]1OC(C)=O
Response given: 0.28

Challenge: Data request, read-out log10(EC50), for C=C1CC[C@@H]2[C@](C)(COC(C)=O)[C@H](O)CC[C@@]2(C)[C@@H]1C/C=C1/C(=O)OC[C@H]1O
Response given: 0.31

Challenge: Data request, read-out log10(EC50), for C=C1CC[C@@H]2[C@](C)(COC(C)=O)[C@H](O)CC[C@@]2(C)[C@@H]1C/C=C1/C(=O)OC[C@H]1OC(C)=O
Response given: 0.21

Challenge: Data request, read-out log10(EC50), for C=C1CC[C@@H]2[C@](C)(CO[Si](c3ccccc3)(c3ccccc3)C(C)(C)C)[C@H](OC(C)=O)CC[C@@]2(C)[C@@H]1C/C=C1/C(=O)OC[C@H]1OC(C)=O
Response given: 0.22

Challenge: Data request, read-out log10(EC50), for C=C1CC[C@@H]2[C@](C)(CO)[C@H](O)CC[C@@]2(C)[C@@H]1C/C=C1/C(=O)OC[C@H]1O [ANDROGRAPHOLIDE]
Response given: 0.35

Challenge: Data request, read-out log10(EC50), for C=C1CC[C@@H]2[C@](C)(CO)[C@H](OC(C)=O)CC[C@@]2(C)[C@@H]1C/C=C1/C(=O)OC[C@H]1OC(C)=O
Response given: -0.16

Challenge: Data request, read-out log10(EC50), for Cc1c2ccncc2c(C)c2c1[nH]c1ccccc12
Response given: 0.39
